Hi there, I'd appreciate the recorded yeast fitness for every entry that follows.
B1: tRNA (parent)
chain: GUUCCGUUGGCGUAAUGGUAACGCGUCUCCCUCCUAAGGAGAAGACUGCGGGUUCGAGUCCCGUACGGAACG

variants of: B1; experiment: yeast fitness relative to wild type (ratio to wild type); higher = fitter; tRNA-Arg(CCU), competitive growth, 37 C, YPD
This sample holds only a part of the variants without activity.
// print number alone

**Query** Which yeast fitness is reported for this variant? C27U A36G
**Result** 0.85

**Query** Which yeast fitness is reported for this variant? C11U C66G A69U
**Result** 0.555

**Query** Which yeast fitness is reported for this variant? C4G A45U
**Result** 0.91

**Query** Which yeast fitness is reported for this variant? C30A C31A C49U C55G
**Result** 0.672

**Query** Which yeast fitness is reported for this variant? C5G C46U G67A
**Result** 0.683

**Query** Which yeast fitness is reported for this variant? A40U U54A C60G G67C
**Result** 0.599

**Query** Which yeast fitness is reported for this variant? U3A U19C
**Result** 0.875

**Query** Which yeast fitness is reported for this variant? C61U A69U A70U
**Result** 0.678

**Query** Which yeast fitness is reported for this variant? A20C C33A G41C C49G
**Result** 0.519

**Query** Which yeast fitness is reported for this variant? G50A C61A
**Result** 0.744

**Query** Which yeast fitness is reported for this variant? U19C C66U
**Result** 0.855

**Query** Which yeast fitness is reported for this variant? G12C C66A
**Result** 0.676

**Query** Which yeast fitness is reported for this variant? C55A G63C
**Result** 0.603

**Query** Which yeast fitness is reported for this variant? A14U U53C
**Result** 0.613

**Query** Which yeast fitness is reported for this variant? U28G A43U
**Result** 0.948

**Query** Which yeast fitness is reported for this variant? U26A C60U
**Result** 0.744

**Query** Which yeast fitness is reported for this variant? A36C A42G
**Result** 0.633

**Query** Which yeast fitness is reported for this variant? C49U U59C C61U
**Result** 0.618

**Query** Which yeast fitness is reported for this variant? C11G G18C A21G A40U A70U
**Result** 0.509

**Query** Which yeast fitness is reported for this variant? C49U G56A G67A
**Result** 0.593

**Query** Which yeast fitness is reported for this variant? U28G C31G G39A
**Result** 0.578
